System: Bordetella bronchiseptica (Bor bron)
MEASUREMENT_DESCRIPTION: microbe, parasite or virus in culture
Type: cell-based
CONDITION_DESCRIPTION: read-out: MIC Bor bron
READOUT_LABEL: MIC (µg/mL)

>>> reported_result("CN1COc2c(N3CCN4CCC[C@H]4C3)c(F)cc3c(=O)c(C(=O)O)cn1c23")
0.5
>>> reported_result("CN1COc2c(N3CCN(C(=O)c4cccs4)CC3)c(F)cc3c(=O)c(C(=O)O)cn1c23")
2
>>> reported_result("CN1COc2c(N3CCN4CCC[C@@H]4C3)c(F)cc3c(=O)c(C(=O)O)cn1c23")
0.25
>>> reported_result("CN1COc2c(N3CCN4CCCCC4C3)c(F)cc3c(=O)c(C(=O)O)cn1c23 (stereo not drawn)")
1
>>> reported_result("CN1COc2c(N3CCN4CCCC4C3)c(F)cc3c(=O)c(C(=O)O)cn1c23 (stereo not drawn)")
0.5
>>> reported_result("Cc1ncsc1C(=O)N1CCN(c2c(F)cc3c(=O)c(C(=O)O)cn4c3c2OCN4C)CC1")
2

----------
Tested on: Staphylococcus aureus, susceptible (Sta aur s)
MEASUREMENT_DESCRIPTION: microbe, parasite or virus in culture
Type: cell-based
CONDITION_DESCRIPTION: read-out: MIC Sta aur s
READOUT_LABEL: MIC

>>> reported_result("CN1COc2c(N3CCN4CCCC4C3)c(F)cc3c(=O)c(C(=O)O)cn1c23 (stereo not drawn)")
"0.25 µg/mL"
>>> reported_result("CN1COc2c(N3CCN4CCC[C@@H]4C3)c(F)cc3c(=O)c(C(=O)O)cn1c23")
"0.12 µg/mL"
>>> reported_result("CN1COc2c(N3CCN4CCCCC4C3)c(F)cc3c(=O)c(C(=O)O)cn1c23 (stereo not drawn)")
"0.25 µg/mL"
>>> reported_result("CN1COc2c(N3CCN(C(=O)c4cccn4C)CC3)c(F)cc3c(=O)c(C(=O)O)cn1c23")
"0.25 µg/mL"
>>> reported_result("CN1COc2c(N3CCN4CCC[C@H]4C3)c(F)cc3c(=O)c(C(=O)O)cn1c23")
"0.25 µg/mL"
>>> reported_result("CN1COc2c(N3CCN(C(=O)c4cscn4)CC3)c(F)cc3c(=O)c(C(=O)O)cn1c23")
"0.12 µg/mL"
>>> reported_result("CN1COc2c(N3CCN(C(=O)c4ccco4)CC3)c(F)cc3c(=O)c(C(=O)O)cn1c23")
"0.06 µg/mL"
>>> reported_result("CN1COc2c(N3CCN(C(=O)c4cccs4)CC3)c(F)cc3c(=O)c(C(=O)O)cn1c23")
"0.06 µg/mL"
>>> reported_result("Cc1ncsc1C(=O)N1CCN(c2c(F)cc3c(=O)c(C(=O)O)cn4c3c2OCN4C)CC1")
"0.25 µg/mL"

----------
Test system: Mannheimia haemolytica, susceptible (Man hae s)
MEASUREMENT_DESCRIPTION: MIC determination by microdilution in liquid medium
Format: cell-based
CONDITION_DESCRIPTION: susceptible strain
READOUT_LABEL: log10 of MIC (log10 of the value in µg/mL)

>>> reported_result("CN1COc2c(N3CCN(C(=O)c4cccs4)CC3)c(F)cc3c(=O)c(C(=O)O)cn1c23 [Example 4]")
-0.60
>>> reported_result("CN1COc2c(N3CCN4CCC[C@H]4C3)c(F)cc3c(=O)c(C(=O)O)cn1c23 [Example 8]")
-1.52
>>> reported_result("Cc1ncsc1C(=O)N1CCN(c2c(F)cc3c(=O)c(C(=O)O)cn4c3c2OCN4C)CC1 [Example 3]")
-0.30
>>> reported_result("CN1COc2c(N3CCN(C(=O)c4cscn4)CC3)c(F)cc3c(=O)c(C(=O)O)cn1c23 [Example 2]")
-0.60
>>> reported_result("CN1COc2c(N3CCN4CCC[C@@H]4C3)c(F)cc3c(=O)c(C(=O)O)cn1c23 [Example 9]")
-1.52
>>> reported_result("CN1COc2c(N3CCN4CCCC4C3)c(F)cc3c(=O)c(C(=O)O)cn1c23 (stereo not drawn) [Example 7]")
-1.52
>>> reported_result("CN1COc2c(N3CCN(C(=O)c4cccn4C)CC3)c(F)cc3c(=O)c(C(=O)O)cn1c23 [Example 1]")
0.00
>>> reported_result("CN1COc2c(N3CCN(C(=O)c4ccco4)CC3)c(F)cc3c(=O)c(C(=O)O)cn1c23 [Example 5]")
-0.60
>>> reported_result("CN1COc2c(N3CCN4CCCCC4C3)c(F)cc3c(=O)c(C(=O)O)cn1c23 (stereo not drawn) [Example 6]")
-1.22
